- assayed system: Hck (UniProt P08631)
- Sequence (P08631 whole entry, looked up): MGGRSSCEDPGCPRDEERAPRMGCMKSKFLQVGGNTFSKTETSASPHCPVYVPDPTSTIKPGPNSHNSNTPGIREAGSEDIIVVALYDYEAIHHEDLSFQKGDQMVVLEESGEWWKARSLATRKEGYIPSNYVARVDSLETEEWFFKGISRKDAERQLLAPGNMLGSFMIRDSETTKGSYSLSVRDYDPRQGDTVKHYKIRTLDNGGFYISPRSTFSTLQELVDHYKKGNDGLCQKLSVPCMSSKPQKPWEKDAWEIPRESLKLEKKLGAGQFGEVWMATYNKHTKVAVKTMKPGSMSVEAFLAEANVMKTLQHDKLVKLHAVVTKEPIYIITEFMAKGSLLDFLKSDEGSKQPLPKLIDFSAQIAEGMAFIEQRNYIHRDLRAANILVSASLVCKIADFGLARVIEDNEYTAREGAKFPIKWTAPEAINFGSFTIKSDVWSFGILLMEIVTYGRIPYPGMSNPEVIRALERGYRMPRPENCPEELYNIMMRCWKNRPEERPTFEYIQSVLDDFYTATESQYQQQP
- assay remarks: phosphorylation enrichment, bacterial display (enrichment ratio); higher = better substrate or ligand; peptides without Tyr show the background;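 further: 11-residue human phosphosite peptides and single-mutation variants displayed on the E. coli surface, counted by deep sequencing, each peptide's frequency after selection divided by its frequency in the unselected input library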;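 further: frequency after pTyr selection over input frequency; kinase dosed for 20-30% of maximal phosphorylation in three min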
Label MET when phosphorylation enrichment is at or above 0.6; anything below gets NOT MET.

>>> group_label("GDEVEYMLVSF [GCLC_Y53]")
"MET"
>>> group_label("LRWREYQRQDY [PRKRIP1_Y90_R87W]")
"NOT MET"
>>> group_label("TFRPPYFHRNC [HGD_Y333_YF]")
"MET"
>>> group_label("GCVSKYSGVFS [TUBGCP6_Y1624]")
"NOT MET"
>>> group_label("DYGSGYPNDPK [RNASEH2A_Y210]")
"NOT MET"
>>> group_label("KAIMTYVFSFF [ACTN4_Y260_S262F_YF]")
"NOT MET"
>>> group_label("ILLAGYLVMVI [SLC28A3_Y113]")
"NOT MET"
>>> group_label("FNVLQYVVPKV [EIF3A_Y382_E386K]")
"NOT MET"
>>> group_label("DESEDYRDTVV [CNNM3_Y456]")
"MET"
>>> group_label("LASSEYPVRRR [GALK1_Y236]")
"NOT MET"
>>> group_label("QEIATYRRLRE [KRT17_Y384_L388R]")
"MET"
>>> group_label("EKLIQYCQSKS [AKR1B1_Y199_G204S]")
"NOT MET"
>>> group_label("HFECKYVINAI [MAOA_Y268_YF]")
"NOT MET"
>>> group_label("ETAENYLGFTA [HSPA9_Y181_H184Y_YF]")
"NOT MET"
>>> group_label("PSGPMYRGAVP [ASAH1_Y43_T42M]")
"NOT MET"
>>> group_label("LSSNLYYRWLT [CNGA3_Y168_P163L]")
"MET"
>>> group_label("RILDVYIFLGP [GAA_Y340_G335R]")
"NOT MET"
>>> group_label("RLFARYFQGDL [PDK3_Y337_YF]")
"MET"
>>> group_label("WGTPEYDSVVA [MAP1A_Y1883_A1881P]")
"MET"
>>> group_label("SDPIIYTLENV [ADGRE1_Y534_I539V]")
"MET"
>>> group_label("AALVQYYMEHH [PTPN11_Y80_E76A]")
"MET"
>>> group_label("AHLTEYLSTHF [UQCRC1_Y219_D215H_YF]")
"NOT MET"
>>> group_label("VDGSLYKTHPQ [HK1_Y417]")
"NOT MET"
>>> group_label("NSIGNYYKPWF [DHCR24_Y299]")
"MET"
>>> group_label("MDQAEYQAKIR [DHX58_Y518]")
"NOT MET"
>>> group_label("GYGGGYGGVLT [KRT19_Y65_A60G]")
"MET"
>>> group_label("SGDVQYRSSVR [FREM2_Y2158_T2153S]")
"NOT MET"
>>> group_label("QTENKYVSVSG [EIF2AK3_Y565_D566V]")
"MET"
>>> group_label("LSGVIYVILWK [PMP22_Y153_R157W]")
"NOT MET"
>>> group_label("GFRVFYTPDSR [PTPRF_Y451_YF]")
"NOT MET"
>>> group_label("GDEEDYFEIPG [EGFR_opt_F_2015]")
"NOT MET"
>>> group_label("QGLRLYRPHLA [BTK_Y617]")
"NOT MET"
>>> group_label("YQLPYYNTVPS [BMPR1A_Y458_M460T]")
"MET"
>>> group_label("YADGVYLALEE [DUOX2_Y70_Q71L]")
"MET"
>>> group_label("GPSTPYTKSKC [SMARCC2_Y324_R329C]")
"NOT MET"
>>> group_label("PMFTKYGNSLL [RPGRIP1L_Y196]")
"MET"
>>> group_label("SPPPAFTPMSG [ERBB4_Y1056_Y1056F]")
"NOT MET"
>>> group_label("IVWDSYTTNKV [GNB3_Y85]")
"NOT MET"
>>> group_label("CTTIHYSYMCN [TP53_Y234_N235S]")
"NOT MET"
>>> group_label("YLQEIHNSNNQ [FGG_Y140_Y140H]")
"NOT MET"
>>> group_label("LCRYGYANTSE [SI_Y1233]")
"MET"
>>> group_label("LSKDLYLISQM [LARP4_Y141]")
"MET"
>>> group_label("NFAKMYCNPDA [KNL1_Y489_YF]")
"NOT MET"
>>> group_label("TLNHQYDYTFD [CSNK1A1_Y292]")
"NOT MET"
>>> group_label("GMRHGHGVRQS [JPH2_Y141_Y141H]")
"NOT MET"
>>> group_label("RGESFYQDTMN [RARS_Y338_R341T]")
"NOT MET"
>>> group_label("IFSGIYFKPES [L2HGDH_Y102_H98Y_YF]")
"MET"
>>> group_label("EIKLAYRRRPP [GRIN2B_Y1109_E1106K]")
"MET"
>>> group_label("GDNNIYVTKII [DLG1_Y349_S347N]")
"MET"
>>> group_label("IVAREYFSDAD [CAMK2A_Y106_E109D_YF]")
"NOT MET"
>>> group_label("AIIGIYILRDD [CDH23_Y2949]")
"MET"
>>> group_label("DVSKEYGHLLP [HRC_Y99]")
"MET"
>>> group_label("LEYNEYFRDLN [HPRT1_Y198_D194E]")
"MET"
>>> group_label("ARGMEYLAEQK [MST1R_Y1198_G1195S]")
"NOT MET"
